target: canine TRPM8 (Canis lupus familiaris); construct: expressed in transfected cells; assay: In Vitro Canine TRPM8 Functional Assay (Ca2+ fluorescence, icilin activation); type: cell-based; conditions: HEK293, 0.5 μM compound; canine TRPM8 HEK293; icilin
Sequence (Q1A7N1 1-1104): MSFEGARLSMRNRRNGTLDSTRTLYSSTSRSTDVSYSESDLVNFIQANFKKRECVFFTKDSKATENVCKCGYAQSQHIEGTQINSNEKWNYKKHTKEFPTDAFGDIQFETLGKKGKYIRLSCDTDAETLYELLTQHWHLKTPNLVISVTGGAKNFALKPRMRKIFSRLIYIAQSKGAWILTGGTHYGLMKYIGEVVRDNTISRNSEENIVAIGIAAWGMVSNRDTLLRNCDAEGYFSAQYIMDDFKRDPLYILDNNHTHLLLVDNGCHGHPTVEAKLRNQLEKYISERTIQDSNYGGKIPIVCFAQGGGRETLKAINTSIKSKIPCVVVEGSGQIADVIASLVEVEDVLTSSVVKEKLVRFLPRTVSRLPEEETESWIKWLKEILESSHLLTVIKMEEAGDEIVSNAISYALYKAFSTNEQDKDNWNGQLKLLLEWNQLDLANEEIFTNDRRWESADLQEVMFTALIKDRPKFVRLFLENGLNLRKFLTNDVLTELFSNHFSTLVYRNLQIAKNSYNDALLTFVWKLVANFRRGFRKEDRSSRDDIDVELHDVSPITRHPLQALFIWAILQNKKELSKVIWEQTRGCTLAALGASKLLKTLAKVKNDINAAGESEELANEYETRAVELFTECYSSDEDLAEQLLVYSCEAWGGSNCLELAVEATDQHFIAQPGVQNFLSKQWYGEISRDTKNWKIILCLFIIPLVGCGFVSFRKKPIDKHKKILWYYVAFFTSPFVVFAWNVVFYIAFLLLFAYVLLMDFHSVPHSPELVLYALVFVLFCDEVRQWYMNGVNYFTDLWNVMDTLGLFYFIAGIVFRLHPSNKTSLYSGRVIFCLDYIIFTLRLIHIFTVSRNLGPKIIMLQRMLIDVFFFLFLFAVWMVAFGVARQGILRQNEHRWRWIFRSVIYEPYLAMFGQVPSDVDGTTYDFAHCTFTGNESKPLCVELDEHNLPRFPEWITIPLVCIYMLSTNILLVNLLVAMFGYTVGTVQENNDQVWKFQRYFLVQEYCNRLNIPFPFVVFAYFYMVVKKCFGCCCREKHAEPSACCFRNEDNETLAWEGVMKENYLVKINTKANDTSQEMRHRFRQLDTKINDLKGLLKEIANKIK
Experimental endpoint: inhibition at 0.5 µM (%)
Give the quantity in %, number only.

Inquiry: Lab note: record inhibition at 0.5 µM of O=C(C(Nc1ccc(F)cc1F)c1ccc(Cl)cc1)N1CCCC1c1ccccc1F (stereo not drawn) tested on canine TRPM8 (Canis lupus familiaris).
Reply text: 97

Inquiry: State inhibition at 0.5 µM on canine TRPM8 (Canis lupus familiaris). Entry: O=C(C(CNc1ccccc1F)c1ccc(C(F)(F)F)cc1)N1Cc2ccccc2C1 (stereo not drawn)
Reply text: 98

Inquiry: Write inhibition at 0.5 µM of O=C(C(Nc1ccccc1F)c1ccc(Cl)cc1)N1CCCC1c1ccccc1Cl (stereo not drawn) ; system used: canine TRPM8 (Canis lupus familiaris)
Reply text: 98

Inquiry: Given O=C(C(Nc1ccccc1)c1ccc(C(F)(F)F)cc1)N1CCCC1c1cccs1 (stereo not drawn) , report its inhibition at 0.5 µM on canine TRPM8 (Canis lupus familiaris).
Reply text: 102

Inquiry: Param request: inhibition at 0.5 µM | system canine TRPM8 (Canis lupus familiaris) | item O=C(C(Nc1ccccc1)c1cccc(C(F)(F)F)c1)N1Cc2ccccc2C1 (stereo not drawn)
Reply text: 99

Inquiry: Lab note: record inhibition at 0.5 µM of O=C(C(Nc1ccc(F)cc1)c1ccc(Cl)cc1)N1CCCC1c1ccccc1 (stereo not drawn) tested on canine TRPM8 (Canis lupus familiaris).
Reply text: 100

Inquiry: Fill in: inhibition at 0.5 µM on canine TRPM8 (Canis lupus familiaris), entry O=C(C(Nc1ccccc1)c1cccc(C(F)(F)F)c1)N1CCCC1c1ccccc1Cl (stereo not drawn)
Reply text: 100

Inquiry: Name the value of inhibition at 0.5 µM reported for O=C(C(Nc1ccccc1F)c1ccc(C(F)(F)F)cc1)N1CCCC1c1ccccc1 (racemic) [Cpd 69] when tested on canine TRPM8 (Canis lupus familiaris).
Reply text: 102

Inquiry: Report the value of inhibition at 0.5 µM obtained on canine TRPM8 (Canis lupus familiaris) for COc1ccc(C(Nc2ccccc2)C(=O)N2CCCC2c2ccccc2Cl)cc1 (stereo not drawn) .
Reply text: 102

Inquiry: Give inhibition at 0.5 µM only, for COc1ccc(C(Nc2sccc2C#N)C(=O)N2CCCC2c2ccccc2Cl)cc1 (stereo not drawn) , using canine TRPM8 (Canis lupus familiaris) data.
Reply text: 88

Inquiry: // fetch inhibition at 0.5 µM for O=C(C(Nc1ccccc1)c1ccc(Cl)cc1)N1CCCC1c1ccccc1Cl (stereo not drawn) ; system: canine TRPM8 (Canis lupus familiaris)
Reply text: 98

Inquiry: For canine TRPM8 (Canis lupus familiaris), give inhibition at 0.5 µM of the listed compound: O=C(C(Nc1ccc(F)cc1F)c1ccc(Cl)cc1)N1Cc2cccc(F)c2C1 (stereo not drawn)
Reply text: 97

Inquiry: Report inhibition at 0.5 µM under test system canine TRPM8 (Canis lupus familiaris) for O=C(C(Nc1ccccc1)c1ccc(C(F)(F)F)cc1)N1CCCC1c1ccccn1 (stereo not drawn) .
Reply text: 83.6

Inquiry: Identify measured inhibition at 0.5 µM obtained with canine TRPM8 (Canis lupus familiaris) for O=C(C(Nc1ccccc1F)c1ccc(Br)cc1)N1CCCC1c1ccccc1F (single isomer, unassigned) .
Reply text: 94

Inquiry: Fetch value of inhibition at 0.5 µM on canine TRPM8 (Canis lupus familiaris) for O=C(C(Nc1ccccc1)c1ccc(Cl)cc1)N1CCc2ccccc2C1 (stereo not drawn) .
Reply text: 99

Inquiry: Using canine TRPM8 (Canis lupus familiaris) as the test system, report measured inhibition at 0.5 µM of COc1ccccc1C1CCCN1C(=O)C(Nc1cccc(F)c1)c1ccc(C(F)(F)F)cc1 (stereo not drawn) .
Reply text: 98

Inquiry: Lab note: record inhibition at 0.5 µM of O=C(C(Nc1ccccc1)c1ccc(C(F)(F)F)cc1)N1CCCC1c1nccs1 (stereo not drawn) tested on canine TRPM8 (Canis lupus familiaris).
Reply text: 102

Inquiry: Provide inhibition at 0.5 µM, tested on canine TRPM8 (Canis lupus familiaris), for O=C(C(Nc1ccccc1F)c1ccc(Cl)cc1)N1Cc2cccc(F)c2C1 (stereo not drawn) .
Reply text: 98

Reference source for all entries: patent US8143259B2
